test: Pharmacokinetics of gemcitabine in mice, intravenous and oral; format: in vivo; conditions: both sexes, Kunming, mouse, plasma, po, 50 mg/kg
Readout name: half-life (min)
Just the number in min, nothing appended.

Prompt line: Record request: half-life value, item Nc1ccn([C@@H]2O[C@H](CO)[C@@H](O)C2(F)F)c(=O)n1 [Gemcitabine, gemcitabine, reference compound]
Response line: 49.8

* * *

Hi there, I'd appreciate the recorded pIC50 for every entry that follows.
tested on: HT29: a human colon cancer cell line; experiment: MTT analytical method, HT29 cells; type: cell-based; conditions: HT-29, 72 h
Note on pIC50: it is the negative log10 of concentration, concentration in mol/L.

Prompt line: # pIC50 lookup, item `CCCCCCCCCCCCOC(=O)c1ccncc1C(=O)Nc1ccn([C@@H]2O[C@H](CO)[C@@H](O)C2(F)F)c(=O)n1`
Response line: 5.10

Prompt line: Another molecule to look at: `CCCCCCCCCCCOC(=O)c1ccc(C(=O)Nc2ccn([C@@H]3O[C@H](CO)[C@@H](O)C3(F)F)c(=O)n2)s1`
Response line: 4.62

Prompt line: Another molecule to look at: `CCCCCCCCCCCOC(=O)c1ccc(C(=O)Nc2ccn([C@@H]3O[C@H](CO)[C@@H](O)C3(F)F)c(=O)n2)nc1`
Response line: 5.40

Prompt line: Next molecule: `CCCCCCCCCCCCOC(=O)c1ccnc(C(=O)Nc2ccn([C@@H]3O[C@H](CO)[C@@H](O)C3(F)F)c(=O)n2)c1`
Response line: 5.70

* * *

experiment: Pharmacokinetics of gemcitabine in mice, intravenous and oral; assay type: in vivo; conditions: both sexes, Kunming, mouse, plasma, iv, 50 mg/kg
Readout name: AUC(0-t) (ng·h/mL)
Your answer is read as ng·h/mL, so omit the unit and give the number.

Prompt line: Could you share which AUC(0-t) value was measured for Nc1ccn([C@@H]2O[C@H](CO)[C@@H](O)C2(F)F)c(=O)n1 [Gemcitabine, gemcitabine, reference compound] ?
Response line: 11300

* * *

Experiment: Pharmacokinetics of gemcitabine in mice, intravenous and oral
Format: in vivo
Details: both sexes, Kunming, mouse, plasma, iv, 50 mg/kg
Method: Kunming strain white mice (25+1 g, provided by Experimental Animal Center of Shandong University, half of which were male, half were female). The solution was filtered and sterilized using a 0.22 μm microfiltration membrane. 120 healthy Kunming mice were taken and divided into two groups randomly. […] The second group was given gemcitabine by intravenous injection in a tail vein. Five mice were settled parallel at each time point. […] The chromatography and peak area were recorded.
Readout name: half-life (min)
Write the number in min without appending the unit.

Prompt line: Request the reported half-life associated with Nc1ccn([C@@H]2O[C@H](CO)[C@@H](O)C2(F)F)c(=O)n1 [Gemcitabine, gemcitabine, reference compound]
Response line: 58.2

* * *

test system: HT29: a human colon cancer cell line; experiment: MTT analytical method, HT29 cells; format: cell-based; conditions: HT-29, 72 h
Readout name: pIC50
# pIC50 = -log10(concentration in molar units)

Prompt line: // pIC50 lookup, key: `CCCCCCCCCCCCCCCCOC(=O)c1ccccc1C(=O)Nc1ccn([C@@H]2O[C@H](CO)[C@@H](O)C2(F)F)c(=O)n1`
Response line: 5.00

Prompt line: Try the molecule `CCCCCCCCCCCOC(=O)c1cc(C(=O)Nc2ccn([C@@H]3O[C@H](CO)[C@@H](O)C3(F)F)c(=O)n2)[nH]n1`
Response line: 5.40
